target: human ADRA2B receptor (Homo sapiens, UniProt P18089); construct: expressed in transfected cells; test: GTPγS agonist assay, ADRA2B receptor; format: biochemical; details: read-out: GTPase - Human Alpha2B EC50
Sequence (P18089 whole entry): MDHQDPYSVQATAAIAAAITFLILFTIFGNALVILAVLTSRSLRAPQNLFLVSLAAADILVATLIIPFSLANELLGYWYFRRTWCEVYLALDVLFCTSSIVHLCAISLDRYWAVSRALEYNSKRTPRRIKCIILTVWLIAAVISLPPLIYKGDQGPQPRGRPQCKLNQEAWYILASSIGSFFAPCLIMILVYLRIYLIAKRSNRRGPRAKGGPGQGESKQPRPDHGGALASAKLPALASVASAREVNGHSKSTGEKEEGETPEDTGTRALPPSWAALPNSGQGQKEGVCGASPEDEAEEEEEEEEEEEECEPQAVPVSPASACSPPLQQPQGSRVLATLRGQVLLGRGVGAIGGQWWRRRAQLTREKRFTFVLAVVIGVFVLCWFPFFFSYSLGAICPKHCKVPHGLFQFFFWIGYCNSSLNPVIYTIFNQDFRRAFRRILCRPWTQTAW
pEC50: −log10 of the molar value.
Recorded measurements of pEC50, one per entry

Study these solved cases before continuing.
INSERT INTO assay_data (compound, recorded_measurement) VALUES
  ('FC(F)(F)c1ccc(C(Cc2cccnn2)c2c[nH]cn2)c(Cl)c1 (centres unmarked)', '< 6.30'),
  ('Cc1cccc([C@H](Cc2cccnn2)c2c[nH]cn2)c1Cl', '7.30 to 8.00'),
  ('COc1cccc(C[C@@H](c2cnc[nH]2)c2cccc3c2CCO3)n1', '7.30 to 8.00'),
  ('Cc1cncc(CC(c2cnc[nH]2)c2cccc(C)c2C)n1 (centres unmarked)', '7.30 to 8.00'),
  ('Cc1cccc([C@@H](Cc2ccnn2C)c2c[nH]cn2)c1C', '> 8.00'),
  ('c1cc2c(c([C@H](Cc3cnn(C4CC4)c3)c3c[nH]cn3)c1)OCC2', '> 8.00'),
  ('Cc1cccc(C(Cc2ccnn2C)c2c[nH]cn2)c1C (centres unmarked)', '> 8.00'),
  ('Cc1nc(C[C@H](c2c[nH]cn2)c2cccc(C)c2C)cs1', '< 6.30');

Turning now to a further record.
Simply: Cc1cccc(C(Cc2cnn(C3CC3)c2)c2c[nH]cn2)c1C (centres unmarked) , human ADRA2B receptor (Homo sapiens, UniProt P18089), pEC50 = > 8.00
